# system_name: hPAOX (Homo sapiens (Human), UniProt Q6QHF9)
# Sequence (Q6QHF9 whole entry): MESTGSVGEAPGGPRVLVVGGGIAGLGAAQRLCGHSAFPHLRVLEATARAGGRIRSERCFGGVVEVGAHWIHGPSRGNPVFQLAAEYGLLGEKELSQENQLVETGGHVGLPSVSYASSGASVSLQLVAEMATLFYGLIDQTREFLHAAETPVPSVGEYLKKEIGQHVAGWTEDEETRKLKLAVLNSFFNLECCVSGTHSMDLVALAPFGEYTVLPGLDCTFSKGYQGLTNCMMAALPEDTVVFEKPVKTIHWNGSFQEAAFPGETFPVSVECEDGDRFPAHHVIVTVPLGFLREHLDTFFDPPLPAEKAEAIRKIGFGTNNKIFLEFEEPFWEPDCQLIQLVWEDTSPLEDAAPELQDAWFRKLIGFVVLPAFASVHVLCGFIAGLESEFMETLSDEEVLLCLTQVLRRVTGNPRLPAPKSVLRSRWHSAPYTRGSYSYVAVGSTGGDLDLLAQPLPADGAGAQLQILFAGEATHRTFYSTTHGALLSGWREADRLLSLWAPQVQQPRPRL
# assay_explanation: Human PAOX assay (HyPerBlu chemiluminescent detection of hydrogen peroxide)
# test_settings: 60 pM recombinant PAOX, 20 μM N-acetylspermine substrate
pIC50: −log10 of the molar value.
value_type: pIC50

CN(C)CC(C)(C)CNC(=O)c1cc2nc(-c3ccccc3)cc(-c3ccccc3)n2n1 = < 4.51
O=C(NCCN1CCOCC1)c1cc2nc(-c3ccccc3)cc(-c3ccccc3)n2n1 = < 4.51

Next compound, please.
Incoming: Look up pIC50 of "O=C(NCCc1ccccc1)c1cc2nc(-c3ccccc3)cc(-c3ccccc3)n2n1" and report it.
Outgoing: < 4.51
